# measurement_target: Human adrenergic α1B receptor (Homo sapiens)
# Sequence (P35368 whole entry): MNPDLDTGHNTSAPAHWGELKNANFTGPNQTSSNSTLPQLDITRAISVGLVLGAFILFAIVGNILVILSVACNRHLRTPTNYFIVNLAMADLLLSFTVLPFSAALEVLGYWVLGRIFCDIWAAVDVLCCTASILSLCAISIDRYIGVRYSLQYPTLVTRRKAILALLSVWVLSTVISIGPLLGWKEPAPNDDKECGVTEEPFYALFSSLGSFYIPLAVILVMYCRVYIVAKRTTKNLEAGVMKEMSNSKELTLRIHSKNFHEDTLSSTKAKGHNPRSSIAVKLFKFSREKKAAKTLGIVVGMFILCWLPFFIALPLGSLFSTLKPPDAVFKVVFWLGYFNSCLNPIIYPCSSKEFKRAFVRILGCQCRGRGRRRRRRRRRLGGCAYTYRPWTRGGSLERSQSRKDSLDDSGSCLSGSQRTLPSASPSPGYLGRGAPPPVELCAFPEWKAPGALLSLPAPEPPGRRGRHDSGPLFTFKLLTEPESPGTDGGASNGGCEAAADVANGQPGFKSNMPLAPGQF
# method_notes: Radioligand binding, adrenergic α1B (Protocol Group B)
# Design: purchased Milipore (Millipore)
# test_context: 0.3 μM compound; Protocol Group B; 0.3 µM
# Lookup of reported Percentage inhibition of ligand binding, Adrenergic α1B (0.3 μM) keyed by entry
Please give a number only; it is taken to be in %.

CC(O)(Cn1c2c(c3cc(F)ccc31)C1CCCN1CC2)c1cccnc1 (stereo not shown) [57a] = −4
CCCOC(Cn1c2c(c3cc(C)ccc31)CN(C)CC2)c1ccncc1 (single isomer, unassigned) [42a] = 70
CC(O)(Cn1c2c(c3cc(F)ccc31)C1CCCN1CC2)c1cccnc1 (stereo not shown) [51b] = 4

Moving on to the next molecule.
# input Assign Percentage inhibition of ligand binding, Adrenergic α1B (0.3 μM) to the following record: Cc1cc(F)c2c(c1)c1c(n2CC(C)(O)c2cccnc2)CCN2CCCC12 (single isomer, unassigned) [79c]
# output 6

The measured values listed here are drawn from patent US20150315188A1.
